recorded metric: melting point

For orientation, consider the following solved cases.
| molecule | melting point |
| --- | --- |
| CC(C)Cc1ccc(C(C)C(=O)NN2C(=O)c3ccccc3N(C)C2c2ccccc2)cc1 (centres unmarked) | 85 to 89 °C |
| O=C(CSc1nc2ccccc2c(=O)n1NC(=O)c1ccccc1)NNC(=O)c1ccccc1 [14a] | 194 to 198 °C |
| COc1ccc(C2N(NC(=O)C(C)c3ccc(CC(C)C)cc3)C(=O)c3ccccc3N2C)cc1 (centres unmarked) | 92 to 95 °C |
| NNC(=O)CSc1nc2ccccc2c(=O)n1NC(=O)c1ccccc1 [13a] | 208 to 213 °C |

Now look at this entry.
melting point reading for O=C(CSc1nc2ccccc2c(=O)n1NC(=O)c1ccccc1)NNC(=O)c1ccc(Cl)cc1 [14b] : 215 to 220 °C
